assayed.system: Glucose transporter (Leishmania mexicana) (UniProt O61059)
test.protocol: ST_JUDE_LEISH: Cytotoxicity at 2uM final concentration against transgenic Leishmania Mexicana promastigotes LmGT2 that are glucose transport deficient and complemented with the L. Mexicana glucose transporter 2. Activity is measured by DNA content using SYBR green in vitro
Type: functional
inhibition reference
A number alone suffices; assume %.

compound	assayed.system	unit.string	inhibition
CCN(CC)CCN(Cc1ccc(-c2ccc(Cl)cc2)cc1)C(=O)Cn1cc(CN(C)C)c(=O)nc1SCc1ccc(F)cc1	Glucose transporter (Leishmania mexicana) (UniProt O61059)	%	1.16
CCOC(=O)c1cn(CC)c2cc(OCc3ccccc3)ccc2c1=O	Glucose transporter (Leishmania mexicana) (UniProt O61059)	%	4.59

Q: Entry CCC(C)NS(=O)(=O)c1ccc2nc(Nc3ccc(C)c(Cl)c3)n(C3CCCCC3)c2c1 (stereo not given) has what inhibition?
Result: 4.46

Q: Then what about the compound `O=C(/C=C/c1ccc(Cl)cc1)NCCCCCN1CCC(C(=O)Nc2ccc(Cl)c(Cl)c2)CC1` ?
Result: -0.64

Q: Then what about the compound `Cc1ccccc1CNc1noc(-c2sccc2Br)n1` ?
Result: -1.5

----------
assayed.system: Glucose transporter (Leishmania mexicana) (UniProt O61059)
test.protocol: ST_JUDE_LEISH: Cytotoxicity at 2uM final concentration against transgenic Leishmania Mexicana promastigotes LmGT2 that are glucose transport deficient and complemented with the L. Mexicana glucose transporter 2. Activity is measured by DNA content using SYBR green in vitro
Format: functional
attribute.measured: inhibition (%)
A number alone suffices; assume %.

These recorded examples may help you get a feel for the data.
molecule	inhibition, %
O=C(NCCCCN1CCCC2c3cccc(O)c3CCC21)c1ccc(-c2ccccc2)cc1 (stereo not drawn)	-0.23
CC(C)N1CCC(N(Cc2ccc(-c3ccc(Cl)cc3)cc2)C(=O)Cn2c(CCc3cccc(F)c3F)nc(=O)c3ccccc32)CC1	3.03
COc1cc2nc(NCCc3ccccc3)nc(NC(C)c3ccccc3)c2cc1OC (stereo not drawn)	3.19
CC1CN(Cc2cccc(-c3ccc(-c4nc5cc(F)ccc5[nH]4)cc3)c2)CC(C)O1 (stereo not drawn)	2.23

Q: Which inhibition is reported with Glucose transporter (Leishmania mexicana) (UniProt O61059) for this entry: `Cc1ccc(Nc2nc3cc(Nc4ccnc(Nc5cccc(CS(C)(=O)=O)c5)n4)ccc3o2)cc1` ?
Result: 0.38

Q: Then what about the molecule `O=C(NCCCN1CCOCC1)c1cccc(Nc2nccc(Nc3ccc(Oc4ccccc4)cc3)n2)c1` ?
Result: -0.86

Q: Then what about the molecule OC(CN1c2ccccc2Sc2ccccc21)CN(C1CCCCC1)C1CCCCC1 (stereo not drawn) ?
Result: 3.8

Q: Then what about the molecule `CNCCNCc1cccc(-c2cccc(-c3nc4cccc(C)c4[nH]3)c2)c1` ?
Result: 0.35

Q: Then what about the molecule OC(CN1CCN(C2CCCCC2)CC1)Cn1c2ccccc2c2cc(Br)ccc21 (stereo not drawn) ?
Result: 0.47

Q: Then what about the molecule `CCOC(=O)CC[C@@H](NC(=O)c1ccc(NCc2ccc3ccc4nc(C)[nH]c(=O)c4c3c2)cc1F)C(=O)N[C@@H](Cc1c[nH]c2ccccc12)C(=O)OCC` ?
Result: 3.35

Q: Then what about the molecule `COc1cc(F)c2nccc([C@@H](O)CN3CCC(NCc4ccc5c(n4)NC(=O)CS5)CC3)c2c1` ?
Result: -1.38

Q: Then what about the molecule O=C(CC1NC(=O)c2ccccc21)Nc1ccc(-c2cccc(-c3nc4cc(C(F)(F)F)ccc4[nH]3)c2)cc1 (stereo not drawn) ?
Result: 0.79

----------
assayed.system: Glucose transporter (Leishmania mexicana)
test.protocol: ST_JUDE_LEISH: Cytotoxicity at 2uM final concentration against transgenic Leishmania Mexicana promastigotes LmGT2 that are glucose transport deficient and complemented with the L. Mexicana glucose transporter 2. Activity is measured by DNA content using SYBR green in vitro
Type: functional
attribute.measured: inhibition (%)
A number alone suffices; assume %.

compound	assayed.system	unit.string	inhibition
Cc1ccoc1C(=O)Nc1cccc(-c2cccc(-c3nc4cccc(C)c4[nH]3)c2)c1	Glucose transporter (Leishmania mexicana)	%	4.05
CN(C)CCCNCc1ccc(-c2ccc(F)c(Cl)c2)o1	Glucose transporter (Leishmania mexicana)	%	-0.76
C=CCc1cc(SC)ccc1Oc1ccc(N)cc1	Glucose transporter (Leishmania mexicana)	%	1.08
O=C(Nc1cccc(CN2CCCN(Cc3ccc4c(c3)OCO4)CC2)c1)c1ccc(-c2ccccc2)cc1	Glucose transporter (Leishmania mexicana)	%	0.89
CCOC(=O)c1ccc(N2CCN(c3cc(Cl)ccc3C)CC2)c(NC(=O)Nc2ccc(Cl)c(Cl)c2)c1	Glucose transporter (Leishmania mexicana)	%	-0.61
Cc1cc(N[C@@H](Cc2ccccc2)C(=O)NCCOc2ccccc2)nc(NCCc2ccc(F)cc2)n1	Glucose transporter (Leishmania mexicana)	%	10.1

Q: Entry `CC(C)(C)c1cc([N+](=O)[O-])cc(C(=O)Nc2ccccc2C(F)(F)F)c1O` has what inhibition?
Result: -1.86

Q: Then what about the compound `Cc1ccc2nc(C)cc(N/N=C/c3cccc([N+](=O)[O-])c3)c2c1` ?
Result: 1.37

Q: Then what about the compound `Fc1ccc2[nH]c(-c3cccc(-c4ccc(CNCCN5CCNCC5)cc4)c3)nc2c1` ?
Result: -0.74

Q: Then what about the compound CCCCN1CCN(CC(O)CNC(=O)Nc2ccc(Cl)cc2)CC1 (centres undefined) ?
Result: 1.81

Q: Then what about the compound `CC(C)C[C@H](NC(=O)c1ccc(OCCN2CCOCC2)cc1)C(=O)N[C@H](/C=N/N1CCNC1=O)CCc1ccccc1` ?
Result: 4.07

Q: Then what about the compound `COc1ccc(-c2cnc(NCc3ccccc3)nc2)cc1CNC1CCN(C)CC1` ?
Result: -0.94

Q: Then what about the compound `CN1CCN(CCCNCc2cccc(Nc3nccc(Nc4ccc(Oc5ccccc5)cc4)n3)c2)CC1` ?
Result: 0.79

Q: Then what about the compound `O=C(NCCc1ccccc1)N(Cc1cccc(-c2ccc(CNCc3ccc4c(c3)OCO4)cc2)c1)C1CCN(Cc2ccccc2)CC1` ?
Result: 1.29

Q: Then what about the compound `Cc1ccc(NC(=O)c2ccc3ncccc3c2)cc1OC1CCN(Cc2ccc(F)cc2)CC1` ?
Result: 5.46

----------
assayed.system: Glucose transporter (Leishmania mexicana)
test.protocol: ST_JUDE_LEISH: Cytotoxicity at 2uM final concentration against transgenic Leishmania Mexicana promastigotes LmGT2 that are glucose transport deficient and complemented with the L. Mexicana glucose transporter 2. Activity is measured by DNA content using SYBR green in vitro
Type: functional
inhibition reference
A number alone suffices; assume %.

These recorded examples may help you get a feel for the data.
compound	unit.string	inhibition
Cc1cccc2nc(-c3ccc(-c4ccc(NC(=O)Nc5cccc(C#N)c5)cc4)s3)[nH]c12	%	8.07
O=C(NCCN1CCCC1)c1ccc(-c2cccc(-c3nc4cc(F)ccc4[nH]3)c2)cc1	%	-0.53
COc1ccccc1C1CCN(C2CCC(NC(=O)/C=C/c3cccc(Cl)c3F)CC2)CC1 (stereo not given)	%	3.14
CC(C)Nc1nc(NC2CCCCC2)nc(N2CCCCCCC2)n1	%	11.6

Q: Entry CN1CCc2cc(Br)c(O)cc2C1Cc1ccccc1Cl (stereo not given) has what inhibition?
Result: -2.87

----------
assayed.system: Hexose transporter 1 (Plasmodium falciparum) (UniProt O97467)
test.protocol: ST_JUDE_LEISH: Cytotoxicity at 2uM final concentration against transgenic Leishmania Mexicana promastigotes LmPfHT that are glucose transport deficient and complemented with the Plasmodium falciparum hexose transporter. Activity is measured by DNA content using SYBR green in vitro
Assay type: functional
attribute.measured: inhibition

These recorded examples may help you get a feel for the data.
compound	inhibition
CC(CN(C)C)C(=O)Nc1ccc(-c2ccc(-c3nc4cc(C(F)(F)F)ccc4[nH]3)cc2)cc1 (centres undefined)	11.6%
CN(C)C(=O)CCCn1c(CNCCCNc2cc(=O)c3ccccc3[nH]2)cc2c(Cl)cc(Cl)cc21	2.54%
COc1ccc2[nH]c(C)cc(=NN=Cc3cccc(Cl)c3)c2c1	4.08%
Cc1cc(N2CCOCC2)nc2ccc(NC(=O)c3ccc(Cl)c([N+](=O)[O-])c3)cc12	3.08%
Fc1ccc2[nH]c(-c3cccc(-c4ccc(CN5CCN(c6ccncc6)CC5)cc4)c3)nc2c1	1.36%
Cc1cccc2nc(-c3cccc(-c4cccc(CNC(C)C)c4)c3)[nH]c12	0.85%
O=C(/C=C/c1ccc(Cl)cc1Cl)N1CCC(CCN2CCC(c3c[nH]c4ccccc34)CC2)CC1	4.28%
COc1ccccc1N1CCN(Cc2c(NC(C)=O)sc(C)c2C)CC1	0.56%
Cc1ccc(NC(=O)c2ccc3ncccc3c2)cc1OC1CCN(Cc2ccc(F)cc2)C1 (centres undefined)	0.73%
Cc1cc2nc(-c3ccc(/C=C/C(=O)NC4CCN(Cc5ccccc5)CC4)cc3)[nH]c2cc1C	-0.75%

Q: Entry COc1cc(OC)nc(C(Sc2ccc(NC(=O)c3cccs3)cc2)c2ccccc2)n1 (centres undefined) has what inhibition?
Result: 4.81%

Q: Then what about the compound CC(Oc1cccc(Cl)c1)C(=O)N1CCc2ccccc21 (centres undefined) ?
Result: -1.34%

Q: Then what about the compound `Cc1[nH]c(C)c(-c2ccc(-c3ccc(OC(F)(F)F)cc3)nc2)c(=O)c1Cl` ?
Result: -0.29%

Q: Then what about the compound O=C(Nc1ccc(F)c(C(F)(F)F)c1)N[C@H]1CCN(CCCCCNC(=O)C2CC2c2ccc(Cl)c(Cl)c2)C1 (some centres undefined) ?
Result: -0.44%

Q: Then what about the compound `COc1ccccc1CN1CCC(NC(=O)c2ccc(-c3cccc(Cl)c3)s2)CC1` ?
Result: 8.66%

Q: Then what about the compound `CC(=O)c1ccc(S(=O)(=O)N2CCC(C(=O)Nc3ccccc3N3CCCC3)CC2)cc1` ?
Result: 0.67%

Q: Then what about the compound `Clc1cccc(Nc2ccc3c(N4CCCCC4)ncnc3n2)c1` ?
Result: 10.8%

Q: Then what about the compound `COc1ccc(C(=O)CCC(=O)N(Cc2ccc(-c3ccc(CNCc4cccnc4)cn3)cc2)C2CCN(Cc3ccccc3)CC2)cc1F` ?
Result: 1.26%

Q: Then what about the compound `Cn1cncc1C(=O)Nc1cccc(-c2cccc(-c3nc4ccccc4[nH]3)c2)c1` ?
Result: 4.74%
